- TEST SYSTEM: hGLP-1R (Homo sapiens, UniProt P43220)
- Sequence (P43220 24-463): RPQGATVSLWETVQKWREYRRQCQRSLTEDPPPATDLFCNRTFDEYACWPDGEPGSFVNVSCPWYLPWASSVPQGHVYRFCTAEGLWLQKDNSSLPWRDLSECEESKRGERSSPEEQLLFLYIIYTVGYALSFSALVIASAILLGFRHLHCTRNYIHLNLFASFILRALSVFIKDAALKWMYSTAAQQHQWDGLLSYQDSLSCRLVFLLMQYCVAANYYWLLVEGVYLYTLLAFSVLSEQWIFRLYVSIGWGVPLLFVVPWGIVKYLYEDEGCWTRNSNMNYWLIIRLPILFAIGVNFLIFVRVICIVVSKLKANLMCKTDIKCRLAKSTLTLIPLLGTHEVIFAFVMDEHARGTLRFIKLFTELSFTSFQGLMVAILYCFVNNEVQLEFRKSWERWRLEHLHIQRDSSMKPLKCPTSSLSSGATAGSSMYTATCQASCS
- ASSAY EXPLANATION: cell-based or functional assay
Non-standard residues stand in square brackets, D forms with d. No end group written: not given here. αMePhe(2-F) = C[C@](N)(Cc1ccccc1F)C(=O)O; Aib = CC(C)(N)C(=O)O
ASSAY READOUT: Relative cAMP EC50
Output should be the measured figure followed by the unit it is expressed in.

BINDER	Relative cAMP EC50
Y[Aib]QGT[αMePhe(2-F)]TSDYSILLDAQAAKEFIEYLIEGGPSSGEPPPSEG-NH2 (not fully specified (residue 20)) [Example 351]	0.679 nM
YXQGTFTSDXSXXLDXKAQXAFIEYLIAGGPSSGEPPPSGTEE (non-natural residues, acylated Lys, C-terminal amide; synthetic construct; SITE 2: note = 2-Aminoisobutyric Acid; SITE 10: note = 3-(4-Pyridyl)-L-alanine; SITE 12: note = L-ornithine; SITE 13: note = alpha-methyl-leucine; SITE 16: note = L-ornithine; SITE 17: note = Lysine is chemically modified through conjugation of the epsilon-amino group of the Lys) [Example 985]	2.93 nM
YXQGTXTSDXXIXLDXKAAXEFIEXLIEGGPSSGEPPPSGGGE (synthetic construct; SITE 2: note = 2-Aminoisobutyric Acid; SITE 6: note = alpha-methyl-2-fluoro-L-phenylalanine; SITE 10: note = 3-(4-Pyridyl)-L-alanine; SITE 11: note = alpha-methyl-L-serine; SITE 13: note = alpha-methyl-leucine; SITE 16: note = L-ornithine; SITE 17: note = Lysine is chemically mo) [Example 746]	0.261 nM
YXQGTFTSDFSKXLDKKAQXAFIEYLIEXSPSSGAPPPSGS (synthetic construct; SITE 2: note = 2-Aminoisobutyric Acid; SITE 13: note = alpha-methyl-leucine; SITE 17: note = Lysine is chemically modified through conjugation of the epsilon-amino group of the Lysine side chain with (2-[2-(2-Amino-ethoxy)-ethoxy]-acetyl)-(gamma-Glu)-CO-(CH2) 16-CO2H; SITE 20: n) [Example 805]	0.715 nM
YXQGTFTSDFSKXLDKKAQXAFIEYLLAGGPSSGEPPPSGE (Aib, αMeL, acylated K, C-terminal amide; synthetic construct; SITE 2: note = 2-Aminoisobutyric Acid; SITE 13: note = alpha-methyl-leucine; SITE 17: note = Lysine is chemically modified through conjugation of the epsilon-amino group of the Lysine side chain with (2-[2-(2-Amino-ethoxy)-ethoxy]-acetyl)-(gamma-Glu)-CO-(CH2) 16-CO2H; SITE 20: n) [Example 23]	2.98 nM

Hello, I would appreciate it if you could give Relative cAMP EC50 for each entry below.
1. YXQGTXTSDXXIXLDXKAQXXFIEYLSEGGPSSGEPPPSGTE (synthetic construct; SITE 2: note = 2-Aminoisobutyric Acid; SITE 6: note = alpha-methyl-2-fluoro-L-phenylalanine; SITE 10: note = 3-(4-Pyridyl)-L-alanine; SITE 11: note = alpha-methyl-L-serine; SITE 13: note = alpha-methyl-leucine; SITE 16: note = L-ornithine; SITE 17: note = Lysine is chemically mo) [Example 530]
2. YXQGTFTSDXSQXLDXKAQXQFIEXLIEGGPSSGEPPPSGSEE (non-natural residues, lipidated Lys, C-terminal amide; synthetic construct; SITE 2: note = 2-Aminoisobutyric Acid; SITE 10: note = 3-(4-Pyridyl)-L-alanine; SITE 13: note = alpha-methyl-leucine; SITE 16: note = L-ornithine; SITE 17: note = Lysine is chemically modified through conjugation of the epsilon-amino group of the Lysine side chain with (gamma-Gl)) [Example 1026]

["4.91 nM", "1.77 nM"]

Hello, I would appreciate it if you could give Relative cAMP EC50 for each entry below.
1. YXQGTXTSDXXIXLDXKAQXQFIEXLQEGGPSSGEPPPEGTGE (synthetic construct; SITE 2: note = 2-Aminoisobutyric Acid; SITE 6: note = alpha-methyl-2-fluoro-L-phenylalanine; SITE 10: note = 3-(4-Pyridyl)-L-alanine; SITE 11: note = alpha-methyl-L-serine; SITE 13: note = alpha-methyl-leucine; SITE 16: note = L-ornithine; SITE 17: note = Lysine is chemically mo) [Example 529]
2. YXQGTFTSDFSXXLDKKAQXAFIEYLIEXGPSSGAPPPSGS (synthetic construct; SITE 2: note = 2-Aminoisobutyric Acid; SITE 12: note = L-ornithine; SITE 13: note = alpha-methyl-leucine; SITE 17: note = Lysine is chemically modified through conjugation of the epsilon-amino group of the Lysine side chain with (2-[2-(2-Amino-ethoxy)-ethoxy]-acetyl)-(gamma-Glu)) [Example 796]

0.467 nM
0.602 nM

Hello, I would appreciate it if you could give Relative cAMP EC50 for each entry below.
1. YXQGTXTSDYSIXLDKKAAXAFIEYLIETGPSSGAPPPSEG (synthetic construct; SITE 2: note = 2-Aminoisobutyric Acid; SITE 6: note = alpha-methyl-2-fluoro-L-phenylalanine; SITE 13: note = alpha-methyl-leucine; SITE 17: note = Lysine is chemically modified through conjugation of the epsilon-amino group of the Lysine side chain with (2-[2-(2-Amino-ethoxy)-et)) [Example 383]
2. YXQGTFTSDFSXXLDKKAQXAFIEYLLEGGPSSGAPPPEGS (synthetic construct; SITE 2: note = 2-Aminoisobutyric Acid; SITE 12: note = L-ornithine; SITE 13: note = alpha-methyl-leucine; SITE 17: note = Lysine is chemically modified through conjugation of the epsilon-amino group of the Lysine side chain with (2-[2-(2-Amino-ethoxy)-ethoxy]-acetyl)-(gamma-Glu)) [Example 130]
3. YXQGTFTSDXSKXLDKKAQXAFIEYLIEXGPSSGAPPPSGSEEE (synthetic construct; SITE 2: note = 2-Aminoisobutyric Acid; SITE 10: note = 3-(4-Pyridyl)-L-alanine; SITE 13: note = alpha-methyl-leucine; SITE 17: note = Lysine is chemically modified through conjugation of the epsilon-amino group of the Lysine side chain with (gamma-Glu)2-CO-(CH2)16-CO2H; SITE 20:) [Example 906]

["0.258 nM", "4.29 nM", "2.48 nM"]
